Source listed as PubChem BioAssay (NCI).

System: HOP-92 NSCLC
Experiment: NCI-60 one-dose screen, 48 h
Conditions: 10 µM unless noted
This is part of a sample that, as a whole, favours compounds with a hit. Of some 83,000 tested, about 20% had one in any assay. The source made the active and inactive calls. Rule for the calls: active = growth percent below 10; inactive = the rest.
Classes used: active, inactive

[
  {
    "compound": "O=c1c2ccccc2nc(-c2ccccc2)n1/N=C/c1ccc2ccccc2c1",
    "test system": "HOP-92 NSCLC",
    "discrete label": "inactive"
  },
  {
    "compound": "CC1(C)CC[C@]2(C(=O)O)CC[C@]3(C)C(=CCC4[C@@]5(C)C[C@@H](O)[C@@H]6OC(c7ccccc7F)OC[C@@]6(C)C5CC[C@]43C)C2C1 (stereo partly specified)",
    "test system": "HOP-92 NSCLC",
    "discrete label": "active"
  },
  {
    "compound": "Cc1cc(C)n(-c2ccc3nnc(-c4ccccc4)n3n2)n1",
    "test system": "HOP-92 NSCLC",
    "discrete label": "inactive"
  },
  {
    "compound": "COc1cccc(COc2ccc(NC(=O)Nc3ccc(Cl)c(C(F)(F)F)c3)cc2)c1",
    "test system": "HOP-92 NSCLC",
    "discrete label": "active"
  },
  {
    "compound": "N#Cc1cnn(C(=O)c2ccccc2Br)c1NC(=O)c1ccc(Br)cc1Cl",
    "test system": "HOP-92 NSCLC",
    "discrete label": "inactive"
  },
  {
    "compound": "CCN(CC)c1ccc(/C=N/Nc2nc(-c3ccc(Br)cc3)cs2)c(O)c1",
    "test system": "HOP-92 NSCLC",
    "discrete label": "inactive"
  },
  {
    "compound": "CCOc1ccc(-c2c(C#N)c(-c3ccc(Cl)cc3)nc3n[nH]c(-c4ccc(Cl)cc4)c23)cc1OC",
    "test system": "HOP-92 NSCLC",
    "discrete label": "inactive"
  },
  {
    "compound": "OCNc1ccc(-n2cnc3cc(-c4ccc(O)cc4)ccc32)cc1C(F)(F)F",
    "test system": "HOP-92 NSCLC",
    "discrete label": "inactive"
  },
  {
    "compound": "COc1ccc2nc(Nc3cccc(NC(=O)c4ccc(CN5CCCN(C)CC5)c(C(F)(F)F)c4)c3)ccc2c1",
    "test system": "HOP-92 NSCLC",
    "discrete label": "active"
  },
  {
    "compound": "Cn1cc(-c2cc(N)n3nc(-c4cn(C)c5ccccc45)cc3n2)c2cc(Cl)ccc21",
    "test system": "HOP-92 NSCLC",
    "discrete label": "active"
  },
  {
    "compound": "S=C(Nc1ccc(OCc2nc3ccccc3[nH]2)cc1)NC1CCCCC1",
    "test system": "HOP-92 NSCLC",
    "discrete label": "inactive"
  }
]
